- assay-details: Solubility of synephrine API in different solvents by HPLC
- Type: physicochemical
- experimental-conditions: organic solvent or mixture; solvent: Anhydrous Ethanol
metric-name: solubility (mg/mL)
Report as a plain number; the unit mg/mL is understood.

Reported solubility for CNCC(O)c1ccc(O)cc1 (stereo not drawn) [SYN, Synephrine] : what is it?
17.2

----------
- assay-details: Pharmacokinetic study in rats, plasma synephrine by LC-MS/MS
- Type: in vivo, rat
- experimental-conditions: plasma, iv; rat, injection group (tail vein)
metric-name: AUC(0-inf) (ng·h/mL)
Report as a plain number; the unit ng·h/mL is understood.

Reported AUC(0-inf) for CNCC(O)c1ccc(O)cc1 (stereo not drawn) [SYN, Synephrine] : what is it?
1540
